# ASSAY EXPLANATION: Components of the Cytosolic LPS Sensing Pathway: Gene Identification via Genome-wide siRNA Screen
# TEST SETTINGS: RAW264.7 macrophages, IL-1a HTRF, actives lie on both sides, screened at 100 nM (by protocol), cells primed 5 h with Pam3CSK4 first
Among all 53,000 sequences or so, about 3,700 (7%) were called active.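 Rule for the calls: active = gene knockdowns whose robust z-score for IL-1 alpha signal is at least 2 or at most -2, so actives lie on both sides; inactive = the rest.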 The entries come from a sample that favours actives as a whole.
Outcome codes: active, inactive

[[record]]
sequence_record = "GCCAGUUUAAGUCUCUCCATT against Tmem168"
discrete_label = "active"

[[record]]
sequence_record = "GGAGGACUGGGAAGAUCAUTT against Aqp5"
discrete_label = "inactive"

[[record]]
sequence_record = "GCCACUCGGAGAUUUUUCATT against Slc15a4"
discrete_label = "inactive"

[[record]]
sequence_record = "GGUAGAGAACCAGAGGCAUTT against Ninj2"
discrete_label = "inactive"

[[record]]
sequence_record = "GGACAUAGCAUCUUCACUUTT against Mpp3"
discrete_label = "inactive"

[[record]]
sequence_record = "GGUGUUUUCUGUGCUGUGATT against Klhdc3"
discrete_label = "inactive"

